All values here come from ChEMBL document CHEMBL4715889.

Measured inhibition accompanies every entry in the list below.
Biological target: Hematopoietic prostaglandin D synthase (Homo sapiens, UniProt O60760)
Sequence (O60760 whole entry): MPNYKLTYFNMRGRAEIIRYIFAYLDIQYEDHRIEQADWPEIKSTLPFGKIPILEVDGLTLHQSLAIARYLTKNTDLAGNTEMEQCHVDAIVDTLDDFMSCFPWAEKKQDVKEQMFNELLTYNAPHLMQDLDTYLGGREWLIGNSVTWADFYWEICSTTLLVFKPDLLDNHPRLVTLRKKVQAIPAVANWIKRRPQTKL
Test: Inhibition of HPGDS (unknown origin) assessed as reduction in reduction in GSTase activity relative to control
Parameters: concentration or dose not given beside the values
Settings: concentration not given here
The figure you give is taken to be in %; do not add the unit.

Input: Fill in reported inhibition for this entry: CC(C)(O)c1nc(-c2cccc(CNC(=O)c3cnc(-c4ccccn4)nc3)c2)no1
Output: 90.9

Input: Give inhibition for the following compound: c1ccc(-c2ccc(-c3cnc(-c4ccccc4)[nH]3)cn2)cc1
Output: 85.2

----------
Target: Hematopoietic prostaglandin D synthase (Homo sapiens)
Assay: Binding affinity to HPGDS (unknown origin) assessed as change in melting temperature in presence of GSH by thermal shift assay
Parameter: ΔTm. Scope: all listed entries.

Input: Dear colleague, please send me the reported ΔTm for c1ccc(-c2ncc(-c3cnc(-c4ccccc4)[nH]3)cn2)cc1 when you can.
Output: 3.8 °C

Input: Give the value of ΔTm reported for the following: CC(C)(O)c1nc(-c2cccc(CNC(=O)c3ccc(-c4ccccn4)nc3)c2)no1
Output: 2.8 °C

----------
Overview of reported ΔTm across a group of molecules:
Molecular target: Hematopoietic prostaglandin D synthase (Homo sapiens, UniProt O60760)
Assay: Binding affinity to HPGDS (unknown origin) assessed as change in melting temperature in presence of GSH by thermal shift assay

// below: answered molecules
{"input.smiles": "CC(C)(O)c1nc(-c2cccc(-c3ncc(-c4cnc(-c5ccccn5)nc4)[nH]3)c2)no1", "value.measured": "0.6 °C"}
{"input.smiles": "c1ccc(-c2ccc(-c3cnc(-c4ccccc4)[nH]3)cn2)cc1", "value.measured": "4.4 °C"}

Input: Please tell me the measured ΔTm for O=C(NCc1ccccc1)c1cnc(-c2ccccn2)nc1 ; system: Hematopoietic prostaglandin D synthase (Homo sapiens, UniProt O60760).
Output: 4.2 °C

Input: State the measured ΔTm (Hematopoietic prostaglandin D synthase (Homo sapiens, UniProt O60760)) of Cc1nc(-c2ccccc2)[nH]c1-c1cnc(-c2ccccc2)nc1
Output: 4.5 °C

----------
Biological target: Hematopoietic prostaglandin D synthase (Homo sapiens, UniProt O60760)
Assay: Inhibition of HPGDS (unknown origin) assessed as reduction in reduction in LPS-induced PGD2 level by ELISA
metric.name: IC50 (nM)
Give the value, in units of nM, as a plain number.

{"input.smiles": "c1ccc(-c2ncc(-c3cnc(-c4ccccc4)[nH]3)cn2)cc1", "target.under.test": "Hematopoietic prostaglandin D synthase (Homo sapiens, UniProt O60760)", "IC50, nM": 59}
{"input.smiles": "Cn1c(-c2cnc(-c3ccccc3)nc2)cnc1-c1ccccc1", "target.under.test": "Hematopoietic prostaglandin D synthase (Homo sapiens, UniProt O60760)", "IC50, nM": 723}
{"input.smiles": "c1ccc(-c2ncc(-c3cnc(-c4ccccn4)nc3)[nH]2)cc1", "target.under.test": "Hematopoietic prostaglandin D synthase (Homo sapiens, UniProt O60760)", "IC50, nM": 5060}
{"input.smiles": "CC(C)(O)c1nc(-c2cccc(-c3ncc(-c4ccc(-c5ccccn5)nc4)[nH]3)c2)no1", "target.under.test": "Hematopoietic prostaglandin D synthase (Homo sapiens, UniProt O60760)", "IC50, nM": 23.4}

Input: Supply measured IC50 of Cc1nc(-c2ccccc2)[nH]c1-c1cnc(-c2ccccc2)nc1 in your reply.
Output: 3740

----------
Target: Hematopoietic prostaglandin D synthase (Homo sapiens)
Assay: Binding affinity to HPGDS (unknown origin) assessed as change in melting temperature by thermal shift assay
List of ΔTm values.
State the answer as a number, implicitly in °C.

{"input.smiles": "CC(C)(O)c1nc(-c2cccc(-c3ncc(-c4ccc(-c5ccccc5)nc4)[nH]3)c2)no1", "value.measured": 4.3}

Input: For Hematopoietic prostaglandin D synthase (Homo sapiens), give the measured ΔTm of the entry c1ccc(-c2ncc(-c3cnc(-c4cccnc4)s3)cn2)cc1
Output: 2.1

Input: Report the value of ΔTm obtained on Hematopoietic prostaglandin D synthase (Homo sapiens) for c1ccc(-c2ccc(-c3cnc(-c4ccccc4)[nH]3)cn2)cc1 .
Output: 3.2

Input: Tell me its ΔTm on Hematopoietic prostaglandin D synthase (Homo sapiens): O=C(NCc1ccccc1)c1ccc(-c2ccccc2)nc1
Output: 0.3

Input: Provide Hematopoietic prostaglandin D synthase (Homo sapiens) ΔTm reading for CC(C)(O)c1nc(-c2cccc(CNC(=O)c3ccc(-c4ccccc4)nc3)c2)no1 .
Output: 0.2

Input: Determine reported ΔTm for Cn1c(-c2cnc(-c3ccccc3)nc2)cnc1-c1ccccc1 ; test system: Hematopoietic prostaglandin D synthase (Homo sapiens).
Output: 3.1

Input: Enter measured ΔTm, system Hematopoietic prostaglandin D synthase (Homo sapiens), for the molecule shown: CC(C)(O)c1nc(-c2cccc(-c3ncc(-c4cnc(-c5ccccn5)nc4)[nH]3)c2)no1
Output: 0.4

Input: Tell me its ΔTm on Hematopoietic prostaglandin D synthase (Homo sapiens): O=C(NCc1ccccc1)c1cnc(-c2ccccn2)nc1
Output: 0.2

Input: Report ΔTm under test system Hematopoietic prostaglandin D synthase (Homo sapiens) for CC(C)(O)c1nc(-c2cccc(-c3ncc(-c4ccc(-c5ccccn5)nc4)[nH]3)c2)no1 .
Output: 4.8

Input: Param request: ΔTm | system Hematopoietic prostaglandin D synthase (Homo sapiens) | item c1ccc(-c2ncc(-c3cnc(-c4ccccn4)nc3)[nH]2)cc1
Output: 0.2

----------
Biological target: Hematopoietic prostaglandin D synthase (Homo sapiens, UniProt O60760)
Experiment: Inhibition of HPGDS (unknown origin) by fluorescence polarization assay
metric.name: IC50
Quick note: number first, unit second.

Input: Please look at this molecule and report its IC50: CC(C)(O)c1nc(-c2cccc(-c3ncc(-c4cnc(-c5ccccc5)nc4)[nH]3)c2)no1
Output: 5.88 nM

Input: Fill in reported IC50 for this entry: CC(C)(O)c1nc(-c2cccc(CNC(=O)c3ccc(-c4ccccc4)nc3)c2)no1
Output: 27.7 nM

Input: Entry O=C(NCc1ccccc1)c1ccc(-c2ccccc2)nc1 needs its IC50 filled in; supply it.
Output: 122 nM

Input: Supply measured IC50 of c1ccc(-c2ncc(-c3cnc(-c4ccccn4)nc3)[nH]2)cc1 in your reply.
Output: 1770 nM

Input: Find the measured IC50 of CC(C)(O)c1nc(-c2cccc(-c3ncc(-c4ccc(-c5ccccc5)nc4)[nH]3)c2)no1 and report it.
Output: 35.4 nM

Input: Supply recorded IC50 for Cc1nc(-c2ccccc2)[nH]c1-c1cnc(-c2ccccc2)nc1 here.
Output: 30.8 nM

Input: Answer with the recorded IC50 of c1ccc(-c2ncc(-c3cnc(-c4cccnc4)[nH]3)cn2)cc1 only.
Output: 13.2 nM

Input: Determine its reported IC50: CC(C)(O)c1nc(-c2cccc(CNC(=O)c3ccc(-c4ccccn4)nc3)c2)no1
Output: 55.5 nM

Input: Provide IC50 value for the following molecule: c1ccc(-c2ncc(-c3cnc(-c4cccnc4)s3)cn2)cc1
Output: 257 nM

Input: Fill in IC50 for record CC(C)(O)c1nc(-c2cccc(CNC(=O)c3cnc(-c4ccccn4)nc3)c2)no1
Output: 7.48 nM

Input: Give reported IC50 value for O=C(NCc1ccccc1)c1ccc(-c2ccccn2)nc1
Output: 80.7 nM

Input: Tell me its IC50 given c1ccc(-c2ccc(-c3cnc(-c4ccccc4)[nH]3)cn2)cc1 as the entry.
Output: 31.6 nM

Input: Give reported IC50 value for c1ccc(-c2ncc(-c3ccc(-c4ccccn4)nc3)[nH]2)cc1
Output: 37.2 nM

Input: Please look at this molecule and report its IC50: c1ccc(-c2ncc(-c3cnc(-c4ccccc4)[nH]3)cn2)cc1
Output: 8.88 nM

Input: # return recorded IC50 for entry CC(C)(O)c1nc(-c2cccc(-c3ncc(-c4cnc(-c5ccccn5)nc4)[nH]3)c2)no1
Output: 3200 nM

Input: Report measured IC50; entry is Cn1c(-c2cnc(-c3ccccc3)nc2)cnc1-c1ccccc1
Output: 63.1 nM

Input: Supply measured IC50 of O=C(NCc1ccccc1)c1cnc(-c2ccccn2)nc1 in your reply.
Output: 7.14 nM

Input: Report IC50 for CC(C)(O)c1nc(-c2cccc(CNC(=O)c3cnc(-c4ccccc4)nc3)c2)no1
Output: 7.18 nM

Input: Hello, please tell me recorded IC50 for this one: CC(C)(O)c1nc(-c2cccc(-c3ncc(-c4ccc(-c5ccccn5)nc4)[nH]3)c2)no1
Output: 78.6 nM

Input: Give a short answer stating reported IC50 for O=C(NCc1ccccc1)c1cnc(-c2ccccc2)nc1 .
Output: 11.7 nM

----------
Biological target: Hematopoietic prostaglandin D synthase (Homo sapiens)
Assay: Inhibition of HPGDS (unknown origin) assessed as reduction in reduction in LPS-induced PGD2 level by ELISA
Items are presented alongside their recorded IC50.

Answered examples (4):
{"input.smiles": "c1ccc(-c2ncc(-c3ccc(-c4ccccn4)nc3)[nH]2)cc1", "IC50": "44.5 nM"}
{"input.smiles": "CC(C)(O)c1nc(-c2cccc(CNC(=O)c3cnc(-c4ccccc4)nc3)c2)no1", "IC50": "9.86 nM"}
{"input.smiles": "c1ccc(-c2ncc(-c3cnc(-c4cccnc4)s3)cn2)cc1", "IC50": "> 5000 nM"}
{"input.smiles": "CC(C)(O)c1nc(-c2cccc(CNC(=O)c3ccc(-c4ccccn4)nc3)c2)no1", "IC50": "328 nM"}

API: the following record is the query input.
Input: Specify IC50 for CC(C)(O)c1nc(-c2cccc(CNC(=O)c3cnc(-c4ccccn4)nc3)c2)no1 and stop.
Output: 11.6 nM
